Here, each record is paired with measured pKd data.
Target or test system: T1, recombinant extracellular domain of CD47 (UniProt Q08722 19-139, limits assumed)
T1 construct: extracellular domain; Analyte flowed over the captured antibodies in SPR; also called CD47-ECD
T1 sequence (Q08722 19-139 limits assumed): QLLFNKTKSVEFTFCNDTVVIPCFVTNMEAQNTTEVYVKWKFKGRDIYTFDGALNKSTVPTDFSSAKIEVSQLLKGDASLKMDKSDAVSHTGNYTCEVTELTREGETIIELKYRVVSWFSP
Assay explanation: SPR; antibody captured on anti-human Fc, CD47-ECD flowed 0-100 nM; 1:1 Langmuir
Protocol: The binding kinetics of anti-CD47 antibodies to the recombinant extracellular domain of CD47 were determined by using surface Plasmon resonance (SPR, MASS-1, Sierra Sensors; T200, Biacore, GE Healthcare Life Sciences). Anti-human Fc (P/N: BR-1008-39 (GE Healthcare Life Sciences)) was immobilized on a High Capacity Amine chip (P/N: SPR-AS-HCA, Sierra sensors) or CM5-S Chip (GE Healthcare Life Sciences). […]
To interpret pKd, take it as minus log10 of a concentration measured in moles per litre.

| Binder | Number |
| --- | --- |
| Ab480/Ab1120 (antibody, V domains shown, FR and CDR L2 variant; Label printed HC first although the head says LC/HC; also called HC Ab480 / LC Ab1120) VH: QMQLVQSGAEVKKPGSSVKVSCKASGFNIKDYYLHWVRQAPGKGLEWMGWIDPDQGDTEYAQKFQGRVTITRDRSTSTAYMELRSLRAEDTAVYYCNAAYGSSSYPMDYWGQGTLVTVSS VL: NIQMTQSPSSLSASVGDRVTITCRASQDIHRYLSWFQQKPGKVPKHLIYRYVRFVDGVPSRFSGSGSGTEFTLTISSLQPEDFATYYCLQYDEFPYTFGGGTKVEIK | 8.98 |

--- query ---
Prompt: Entry Ab480/Ab1122 (antibody, V domains shown, FR and CDR L2 variant; Label printed HC first; r445 used; also called HC Ab480 / LC Ab1122) VH: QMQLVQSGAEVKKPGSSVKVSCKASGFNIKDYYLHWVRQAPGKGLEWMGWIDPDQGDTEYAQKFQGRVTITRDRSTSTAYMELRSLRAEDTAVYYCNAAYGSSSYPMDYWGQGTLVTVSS VL: NIQMTQSPSSLSASVGDRVTITCRASQDIHRYLSWFQQKPGKVPKHLIYRYERFVDGVPSRFSGSGSGTEFTLTISSLQPEDFATYYCLQYDEFPYTFGGGTKVEIK : reported pKd = ?
Completion: 8.33
